The values you see were collected from patent US20230203185A1.

Below: a set of entries, each annotated with reported % Binding.
- TESTED_ON: T1, native membrane bound porcine CD163 on primary porcine alveolar macrophages (porcine, UniProt Q2VL90 47-1115)
- T1 construct: also called PAM CD163-WT; pPAM
- T1 sequence: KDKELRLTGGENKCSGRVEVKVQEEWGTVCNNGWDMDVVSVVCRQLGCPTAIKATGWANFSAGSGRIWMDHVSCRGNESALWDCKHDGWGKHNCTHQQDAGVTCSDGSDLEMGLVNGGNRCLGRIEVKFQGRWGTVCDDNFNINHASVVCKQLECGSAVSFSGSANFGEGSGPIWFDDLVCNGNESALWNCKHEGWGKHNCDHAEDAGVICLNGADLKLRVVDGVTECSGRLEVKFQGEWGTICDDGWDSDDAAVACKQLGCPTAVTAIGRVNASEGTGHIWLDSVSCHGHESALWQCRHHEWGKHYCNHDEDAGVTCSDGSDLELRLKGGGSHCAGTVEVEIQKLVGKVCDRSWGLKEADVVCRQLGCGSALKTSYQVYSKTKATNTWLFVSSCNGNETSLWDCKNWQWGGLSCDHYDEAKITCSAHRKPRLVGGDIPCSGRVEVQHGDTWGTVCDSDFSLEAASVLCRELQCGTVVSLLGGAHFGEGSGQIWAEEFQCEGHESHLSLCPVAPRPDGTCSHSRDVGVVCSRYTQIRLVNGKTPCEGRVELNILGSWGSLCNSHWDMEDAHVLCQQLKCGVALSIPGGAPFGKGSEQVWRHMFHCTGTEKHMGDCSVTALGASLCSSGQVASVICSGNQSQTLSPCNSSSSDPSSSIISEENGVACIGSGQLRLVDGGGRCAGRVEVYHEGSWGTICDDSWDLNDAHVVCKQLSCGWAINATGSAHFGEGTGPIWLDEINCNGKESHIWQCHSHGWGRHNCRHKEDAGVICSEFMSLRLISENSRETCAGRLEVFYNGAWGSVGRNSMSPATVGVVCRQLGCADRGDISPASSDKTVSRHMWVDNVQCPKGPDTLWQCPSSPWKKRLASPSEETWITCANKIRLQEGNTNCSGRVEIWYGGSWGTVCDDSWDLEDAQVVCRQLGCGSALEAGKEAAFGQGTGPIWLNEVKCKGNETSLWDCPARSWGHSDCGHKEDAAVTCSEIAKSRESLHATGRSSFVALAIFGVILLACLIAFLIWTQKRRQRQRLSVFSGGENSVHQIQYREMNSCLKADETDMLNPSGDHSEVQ
- ASSAY_PROCEDURE: flow cytometry, PAM CD163-WT, RT
The answer is to be given in %; state only the numeric part.

A selection of reference data follows.
{"columns": ["BINDER", "NUMERIC_READOUT"],
 "data": [
  ["VHH 011 (2B06) (VHH, Llama single domain antibody; also called 57(#11); VHCDR3 57(#11); not shown: tags: c-myc tag in periplasmic extract (ELISA, FACS); FLAG and His tags in purified VHH (SPR, infection assays)) VHH: EVQLVESGGGLVQAGGSLRLSCAASGRTLSVYGTGWFRQAPGKEREFVAGISGTTGSTLYADSVKGRFTISRDNAKNTVYLQMNSLKSEDTALYYCAAGGRVYITTSSWAYWGQGTQVTVSS", 3.32],
  ["VHH 023 (4E10) (VHH, Llama single domain antibody; also called 70(#23); VHCDR3 70(#23); not shown: tags: c-myc tag in periplasmic extract (ELISA, FACS); FLAG and His tags in purified VHH (SPR, infection assays)) VHH: QVQLVESGGGLVQAGGSLRLSCVASSRTSSTYAMGWFRQGPGKERDFVAIISFGGTFYADSVKGRFTISRDNAKNTVYLQMNSLKPEDTAVYYCAAGRTLSKRADSYASWGQGTQVTVSS", 0.56],
  ["VHH 002 (1B04) (VHH, Llama single domain antibody; also called 76(#2); VHCDR3 76(#2); not shown: tags: c-myc tag in periplasmic extract (ELISA, FACS); FLAG and His tags in purified VHH (SPR, infection assays)) VHH: QVQLVESGGGLVQAGGSLRLSCAASGLTFVTYSMGWFRQAPGKEREFVAAHRWSGSAYYAEHADSVEGRFTISRDYAKNMLYLQMNSLKHEDTAVYYCAAGVGSAAQYRYWGRGTQVTVSS", 1.02]
]}

Form: binder = VHH 001 (1B02) (VHH, Llama single domain antibody; also called 144(#1); VHCDR3 144(#1); not shown: tags: c-myc tag in periplasmic extract (ELISA, FACS); FLAG and His tags in purified VHH (SPR, infection assays)) VHH: EVQLVESGGGLVQAGGSLSLSCAASGGTLAMYAMSWFRQAPGKDRKFVAAINTSGRYSRYADSVKGRFTISRDNAKNTATLQMNSLEPEDTAVYYCAATDKGNWALAMSYDYWGQGTQVTVSS ; % Binding = 0.69
